These data points were gathered from patent US11866460B2.

tested on: DENV-3 H87; settings: -3 H87
Where no end group is shown, it is not given here.
# label = y if Therapeutic Index (CC50/EC50) >= 20 else n

Problem: Does the sequence GSSWLRDVWTWLQSKL [TSG002] have recorded Therapeutic Index (CC50/EC50) that is 20 or more?
Solution: n

Problem: Does the sequence GSSWLRDVWTWLQSAL [TSG003] have recorded Therapeutic Index (CC50/EC50) that is 20 or more?
Solution: y

Problem: Does the sequence GSSWLRDIWTALQSWL [TSG006] have recorded Therapeutic Index (CC50/EC50) that is 20 or more?
Solution: n

Problem: Does the sequence GSSWLRDVWTKLQSWL [TSG004] have recorded Therapeutic Index (CC50/EC50) that is 20 or more?
Solution: n

Problem: Does the sequence SWLRDIWDWICEVLSDFK [C5A, reference compound] have recorded Therapeutic Index (CC50/EC50) that is 20 or more?
Solution: n

====

experiment: in vitro; conditions: dog
Where no end group is shown, it is not given here.
reported property: CC50

Problem: Determine from records and report CC50 for SGSWLRDVWTWLQSKL [TSG001]
Solution: > 200 µM

====

test: in vitro; conditions: African green monkey, CC50
Where no end group is shown, it is not given here.
reported property: CC50
// return the numeric value with its unit appended

Problem: Determine from records and report CC50 for GSSWLRDIWTALQSWL [TSG006]
Solution: 14.9 µM

Problem: Determine from records and report CC50 for GSSWLRDVWTKLQSWL [TSG004]
Solution: 111 µM

Problem: Determine from records and report CC50 for GSSWLRDVWTWLQSAL [TSG003]
Solution: 24.5 µM

====

tested on: DENV-2 New Guinea C; assay: microbe, parasite or virus in culture; settings: Dengue virus, DENV2, Vero
reported property: pEC50
Would you please state pEC50, meaning minus log10 of the concentration in mol/L, as a bare number?

Problem: Determine from records and report pEC50 for NC(=O)c1ncn([C@@H]2O[C@H](CO)[C@@H](O)[C@H]2O)n1 [Ribavirin]
Solution: 3.57

====

Consider the following molecules; for each one, report its CC50.
assay: in vitro; settings: African green monkey, CC50

Problem: Determine from records and report CC50 for Nc1ccn(C[C@@H](CO)OCP(=O)(O)O)c(=O)n1
Solution: > 375 µM

Problem: Determine from records and report CC50 for NC(=O)c1ncn([C@@H]2O[C@H](CO)[C@@H](O)[C@H]2O)n1
Solution: > 750 µM

====

# MHC per entry for human erythrocyte cells
Where no end group is shown, it is not given here.
Give your result in µM as a bare value.

Problem: Determine from records and report MHC for SGSWLRDVWTWLQSKL [TSG001]
Solution: 50

Problem: Determine from records and report MHC for GSSWLRDILTALQSLL [TSG007]
Solution: 1.5

Problem: Determine from records and report MHC for GSSWLRDVWTWLQSAL [TSG003]
Solution: 50

Problem: Determine from records and report MHC for GSSWLRDVWTKLQSWL [TSG004]
Solution: 50

Problem: Determine from records and report MHC for AGSWLRDILTLLQSAL [TSG009]
Solution: 1.5

Problem: Determine from records and report MHC for SWLRDIWDWICEVLSDFK [C5A, reference compound]
Solution: 13

Problem: Determine from records and report MHC for AGSWLRDIWTWLQSAL [TSG008]
Solution: 1.5

====

experiment: in vitro; conditions: Lactobacillus acidophilus
Where no end group is shown, it is not given here.
reported property: CC50

Problem: Determine from records and report CC50 for SGSWLRDVWTWLQSKL [TSG001]
Solution: > 50 µM

====

Where no end group is shown, it is not given here.
Consider the following sequences; for each one, report its EC50.
Give your result in nM as a bare value.

Problem: Report value only: EC50, Ebola virus (EBOV), SGSWLRDVWTWLQSKL [TSG001]
Solution: 934

Problem: Report value only: EC50, Ebola virus (EBOV), GSSWLRDVWTWLQSKL [TSG002]
Solution: 1010

====

Where no end group is shown, it is not given here.
# Therapeutic Index (CC50/EC50) per entry for YFV 17D
Please state the value as a number alone, without comment.

Problem: Determine from records and report Therapeutic Index (CC50/EC50) for SWLRDIWDWICEVLSDFK [C5A, reference compound]
Solution: 99.97

Problem: Determine from records and report Therapeutic Index (CC50/EC50) for GSSWLRDVWTWLQSAL [TSG003]
Solution: 18.05

Problem: Determine from records and report Therapeutic Index (CC50/EC50) for GSSWLRDVWTWLQSKL [TSG002]
Solution: 7.40

Problem: Determine from records and report Therapeutic Index (CC50/EC50) for GSSWLRDVWTKLQSWL [TSG004]
Solution: 14.33

Problem: Determine from records and report Therapeutic Index (CC50/EC50) for GSSWLRDIWTALQSWL [TSG006]
Solution: 22.09

====

test system: ME180 cells; conditions: human
Where no end group is shown, it is not given here.
reported property: CC50 (µM)
Give your result in µM as a bare value.

Problem: Report value only: CC50, ME180 cells, SGSWLRDVWTWLQSKL [TSG001]
Solution: 37

====

tested on: LACV H44-71017; experiment: organism not typed; assay type: cell-based, LaCrosse encephalitis virus; settings: Vero, 0 h
reported property: pEC50
Would you please state pEC50, meaning minus log10 of the concentration in mol/L, as a bare number?

Problem: Determine from records and report pEC50 for NC(=O)c1ncn([C@@H]2O[C@H](CO)[C@@H](O)[C@H]2O)n1 [Ribavirin]
Solution: 3.84

====

test system: VACV NYCBH; conditions: 0 h
Where no end group is shown, it is not given here.
reported property: EC50

Problem: Determine from records and report EC50 for SGSWLRDVWTWLQSKL [TSG001]
Solution: > 12.5 µM

====

tested on: JEV 14-14-2; conditions: 0 h
Where no end group is shown, it is not given here.
reported property: EC50 (µM)
Give your result in µM as a bare value.

Problem: Determine from records and report EC50 for GSSWLRDVWTWLQSAL [TSG003]
Solution: 16.3

====

# Therapeutic Index (CC50/EC50) per entry for JEV 14-14-2
Where no end group is shown, it is not given here.
Please state the value as a number alone, without comment.

Problem: Report value only: Therapeutic Index (CC50/EC50), JEV 14-14-2, GSSWLRDVWTWLQSKL [TSG002]
Solution: 6.72

Problem: Report value only: Therapeutic Index (CC50/EC50), JEV 14-14-2, GSSWLRDVWTKLQSWL [TSG004]
Solution: 24.46

Problem: Report value only: Therapeutic Index (CC50/EC50), JEV 14-14-2, GSSWLRDIWTALQSWL [TSG006]
Solution: 10.71

Problem: Report value only: Therapeutic Index (CC50/EC50), JEV 14-14-2, SWLRDIWDWICEVLSDFK [C5A, reference compound]
Solution: 61.68

====

# pEC50 per entry for Marburg virus (MARV)
Where no end group is shown, it is not given here.
Would you please state pEC50, meaning minus log10 of the concentration in mol/L, as a bare number?

Problem: Determine from records and report pEC50 for SGSWLRDVWTWLQSKL [TSG001]
Solution: 6.20

Problem: Determine from records and report pEC50 for GSSWLRDVWTWLQSKL [TSG002]
Solution: 6.04

====

experiment: in vitro; details: human, TC50
Where no end group is shown, it is not given here.
reported property: CC50 (µM)
Give your result in µM as a bare value.

Problem: Determine from records and report CC50 for SGSWLRDVWTWLQSKL [TSG001]
Solution: 37

====

test system: DENV-4 H241; settings: -4 H241
Where no end group is shown, it is not given here.
Consider the following sequences; for each one, report its Therapeutic Index (CC50/EC50).
Please state the value as a number alone, without comment.

Problem: Determine from records and report Therapeutic Index (CC50/EC50) for SWLRDIWDWICEVLSDFK [C5A, reference compound]
Solution: 22.13

Problem: Determine from records and report Therapeutic Index (CC50/EC50) for GSSWLRDVWTWLQSKL [TSG002]
Solution: 8.58

Problem: Determine from records and report Therapeutic Index (CC50/EC50) for GSSWLRDVWTKLQSWL [TSG004]
Solution: 15.88

Problem: Determine from records and report Therapeutic Index (CC50/EC50) for GSSWLRDVWTWLQSAL [TSG003]
Solution: 20.23

Problem: Determine from records and report Therapeutic Index (CC50/EC50) for GSSWLRDIWTALQSWL [TSG006]
Solution: 11.63

====

tested on: CHIKV 181/25
Where no end group is shown, it is not given here.
// boundary case: Therapeutic Index (CC50/EC50) equal to 9 maps to Not met; strictly smaller maps to Met

Problem: Quick check: Therapeutic Index (CC50/EC50) of GSSWLRDVWTWLQSKL [TSG002] under 9?
Solution: Met

Problem: Quick check: Therapeutic Index (CC50/EC50) of SWLRDIWDWICEVLSDFK [C5A, reference compound] under 9?
Solution: Not met

Problem: Quick check: Therapeutic Index (CC50/EC50) of GSSWLRDIWTALQSWL [TSG006] under 9?
Solution: Met

Problem: Quick check: Therapeutic Index (CC50/EC50) of GSSWLRDVWTWLQSAL [TSG003] under 9?
Solution: Not met

Problem: Quick check: Therapeutic Index (CC50/EC50) of GSSWLRDVWTKLQSWL [TSG004] under 9?
Solution: Not met
